- Assayed Target: UniProtKB P09874
- Protocol Text: PARP1 chemiluminescent assay
- Format: biochemical
- Condition Label: recombinant PARP1 enzyme activity, chemiluminescence

- Compound: "CNC(=O)c1ccc(NC(=O)c2cccc(-c3ccc4c(=O)n(C(C)C)c(=O)[nH]c4c3)c2)cn1"
  IC50: "1 to 10 nM"
- Compound: "CCn1c(=O)[nH]c2cc(CN3CCN(c4cnc(C(=O)NC)nc4)CC3)ccc2c1=O"
  IC50: "1 to 10 nM"
- Compound: "CCn1c(=O)[nH]c2cc(CN3CCN(c4ccc(C(=O)NC)nc4Cl)CC3)cnc2c1=O"
  IC50: "1 to 10 nM"
- Compound: "CCNC(=O)c1ccc(N2CCN(Cc3cc(F)c4c(c3)NC(=O)N(CC)C4)CC2)c(Cl)n1"
  IC50: "1 to 10 nM"
- Compound: "CCCn1c(=O)[nH]c2cc(CN3CCN(c4ccc(C(=O)NC)nc4F)CC3)ccc2c1=O"
  IC50: "1 to 10 nM"
- Compound: "CCn1c(=O)[nH]c2cc(CN3CCN(c4ccc(C(=O)NC)nc4Cl)CC3)cc(F)c2c1=O"
  IC50: "1 to 10 nM"
- Compound: "CCn1c(=O)[nH]c2cc(CN3CCN(c4ncc(C(=O)NC)cn4)CC3)ccc2c1=O"
  IC50: "10 to 100 nM"
- Compound: "CCn1c(=O)[nH]c2cc(CN3CCN(c4ccc(C(=O)NC5CC5)nc4F)CC3)ccc2c1=O"
  IC50: "1 to 10 nM"
- Compound: "CNC(=O)c1ccc(N2CCN(Cc3cnc4c(=O)n(C(C)C)c(=O)[nH]c4c3)CC2)cn1"
  IC50: "10 to 100 nM"
- Compound: "CCn1c(=O)[nH]c2cc(CN3CCN(c4ccc(C(=O)NC)nc4F)CC3)ccc2c1=O"
  IC50: "1 to 10 nM"
- Compound: "CCN1Cc2ccc(CN3CCN(c4ccc(C(=O)NC)nc4Cl)CC3)cc2NC1=O"
  IC50: "1 to 10 nM"
- Compound: "CCn1c(=O)[nH]c2cc(CN3CCN(c4ccc(C(N)=O)nc4F)CC3)ccc2c1=O"
  IC50: "1 to 10 nM"
- Compound: "CCN1Cc2ccc(CN3CCN(c4ccc(C(=O)NC)nc4F)CC3)cc2NC1=O"
  IC50: "1 to 10 nM"
- Compound: "CCNC(=O)c1ccc(N2CCN(Cc3ccc4c(=O)n(CC)c(=O)[nH]c4c3)CC2)c(Cl)n1"
  IC50: "1 to 10 nM"
- Compound: "CCn1c(=O)[nH]c2cc(CN3CCN(c4ccc(C(=O)NC)nc4)CC3)ccc21"
  IC50: "> 1000 nM"
- Compound: "CCn1c(=O)[nH]c2cc(CN3CCN(c4ccc(C(=O)NC)nc4Cl)CC3)c(F)cc2c1=O"
  IC50: "1 to 10 nM"
- Compound: "CNC(=O)c1ccc(N2CCN(Cc3ccc4c(=O)n(C(C)C)c(=O)[nH]c4c3)CC2)c(F)n1"
  IC50: "1 to 10 nM"
- Compound: "CCc1nc(C(=O)NC)ccc1N1CCN(Cc2ccc3c(=O)n(CC)c(=O)[nH]c3c2)CC1"
  IC50: "≤ 1 nM"
- Compound: "CCNC(=O)c1ccc(N2CCN(Cc3ccc4c(c3)NC(=O)N(CC)C4)CC2)c(C)n1"
  IC50: "1 to 10 nM"
- Compound: "CCn1c(=O)[nH]c2cc(CN3CCN(c4ccc(C(=O)NC5CC5)nc4C)CC3)ccc2c1=O"
  IC50: "1 to 10 nM"
- Compound: "CNC(=O)c1ccc(NC(=O)c2cccc(-c3ccc4c(=O)n(C)c(=O)[nH]c4c3)c2)cn1"
  IC50: "1 to 10 nM"
- Compound: "CCn1c(=O)[nH]c2cc(CN3CCN(c4ccc(C(=O)NC)nn4)CC3)ccc2c1=O"
  IC50: "1 to 10 nM"
- Compound: "CCn1c(=O)[nH]c2cc(CN3CCN(c4ccc(C(=O)NC)nc4F)CC3)cc(F)c2c1=O"
  IC50: "1 to 10 nM"
- Compound: "CCn1c(=O)[nH]c2cc(CN3CCN(c4ccc(C(=O)NC)nc4C)CC3)c(F)cc2c1=O"
  IC50: "10 to 100 nM"
- Compound: "CCn1c(=O)[nH]c2cc(-c3cccc(C(=O)Nc4ccc(C(=O)NC)nc4)c3)ccc2c1=O"
  IC50: "1 to 10 nM"
- Compound: "CCn1c(=O)[nH]c2c(F)c(CN3CCN(c4ccc(C(=O)NC)nc4F)CC3)ccc2c1=O"
  IC50: "10 to 100 nM"
- Compound: "CCn1c(=O)[nH]c2cc(CN3CCN(c4ccc(C(=O)NC)nc4C)CC3)cnc2c1=O"
  IC50: "1 to 10 nM"
- Compound: "CCn1c(=O)[nH]c2cc(CN3CCN(c4ccc(C(=O)NC)nc4Cl)CC3)ccc2c1=O"
  IC50: "≤ 1 nM"
- Compound: "CCCn1c(=O)[nH]c2cc(CN3CCN(c4ccc(C(=O)NC)nc4)CC3)cnc2c1=O"
  IC50: "≤ 1 nM"
- Compound: "CCN1Cc2c(F)cc(CN3CCN(c4ccc(C(=O)NC)nc4C)CC3)cc2NC1=O"
  IC50: "1 to 10 nM"
- Compound: "O=C(c1cc(Cn2c(=O)[nH]c(=O)c3c(F)cccc32)ccc1F)N1CCN(c2ncccn2)CC1 [Senaparib, reference compound]"
  IC50: "1 to 10 nM"
- Compound: "CCn1c(=O)[nH]c2cc(CN3CCN(c4ccc(C(=O)NC)cn4)CC3)ccc2c1=O"
  IC50: "1 to 10 nM"

---

- Assayed Target: PARP1 (Homo sapiens)
- Sequence (P09874 whole entry): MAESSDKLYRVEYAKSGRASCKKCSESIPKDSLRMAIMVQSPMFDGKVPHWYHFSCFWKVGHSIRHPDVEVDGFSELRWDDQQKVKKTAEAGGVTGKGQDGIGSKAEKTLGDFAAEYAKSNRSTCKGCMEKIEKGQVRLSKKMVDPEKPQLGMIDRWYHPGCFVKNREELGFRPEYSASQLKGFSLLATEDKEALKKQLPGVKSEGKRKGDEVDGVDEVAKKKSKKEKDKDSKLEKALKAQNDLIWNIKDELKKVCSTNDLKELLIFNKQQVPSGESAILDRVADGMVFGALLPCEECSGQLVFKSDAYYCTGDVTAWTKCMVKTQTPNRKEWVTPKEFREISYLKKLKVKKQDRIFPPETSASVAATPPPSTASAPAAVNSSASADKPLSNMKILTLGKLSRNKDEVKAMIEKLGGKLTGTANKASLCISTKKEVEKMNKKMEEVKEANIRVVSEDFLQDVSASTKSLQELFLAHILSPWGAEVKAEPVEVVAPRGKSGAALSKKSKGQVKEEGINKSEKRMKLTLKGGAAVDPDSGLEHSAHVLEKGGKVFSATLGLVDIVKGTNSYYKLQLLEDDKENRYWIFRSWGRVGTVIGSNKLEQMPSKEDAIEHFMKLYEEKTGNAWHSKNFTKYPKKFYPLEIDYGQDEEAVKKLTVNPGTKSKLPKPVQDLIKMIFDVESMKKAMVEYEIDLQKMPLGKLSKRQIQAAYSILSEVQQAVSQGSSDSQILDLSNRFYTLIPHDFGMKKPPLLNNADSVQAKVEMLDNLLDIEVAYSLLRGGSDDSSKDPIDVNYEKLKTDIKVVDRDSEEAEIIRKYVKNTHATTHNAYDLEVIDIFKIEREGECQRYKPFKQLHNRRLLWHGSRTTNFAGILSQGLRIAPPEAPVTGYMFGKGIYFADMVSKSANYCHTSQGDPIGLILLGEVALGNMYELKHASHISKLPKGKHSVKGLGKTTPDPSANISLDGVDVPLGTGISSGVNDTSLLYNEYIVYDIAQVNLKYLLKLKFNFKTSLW
- Protocol Text: PARP1 chemiluminescent assay
- Assay type: biochemical
- Condition Label: recombinant PARP1 enzyme activity, chemiluminescence
Readings of IC50 for the listed molecules

- Chemical String: "CCn1c(=O)[nH]c2cc(CN3CCN(c4ccc(C(=O)NC)nc4)CC3)cnc2c1=O"
  IC50: "≤ 1 nM"
- Chemical String: "CCCn1c(=O)[nH]c2cc(-c3cccc(C(=O)Nc4ccc(C(=O)NC)nc4)c3)ccc2c1=O"
  IC50: "10 to 100 nM"
- Chemical String: "CCn1c(=O)[nH]c2cc(CN3CCN(c4ccc(C(=O)NC)nc4Cl)CC3)cc(Cl)c2c1=O"
  IC50: "1 to 10 nM"
- Chemical String: "CNC(=O)c1ccc(N2CCN(Cc3ccc4c(=O)n(C)c(=O)[nH]c4c3)CC2)c(F)n1"
  IC50: "1 to 10 nM"
- Chemical String: "CCNC(=O)c1ccc(N2CCN(Cc3ccc4c(=O)n(CC)c(=O)[nH]c4c3)CC2)c(F)n1"
  IC50: "1 to 10 nM"

---

- Assayed Target: PARP2 (Homo sapiens)
- Sequence (Q9UGN5 whole entry, species assumed): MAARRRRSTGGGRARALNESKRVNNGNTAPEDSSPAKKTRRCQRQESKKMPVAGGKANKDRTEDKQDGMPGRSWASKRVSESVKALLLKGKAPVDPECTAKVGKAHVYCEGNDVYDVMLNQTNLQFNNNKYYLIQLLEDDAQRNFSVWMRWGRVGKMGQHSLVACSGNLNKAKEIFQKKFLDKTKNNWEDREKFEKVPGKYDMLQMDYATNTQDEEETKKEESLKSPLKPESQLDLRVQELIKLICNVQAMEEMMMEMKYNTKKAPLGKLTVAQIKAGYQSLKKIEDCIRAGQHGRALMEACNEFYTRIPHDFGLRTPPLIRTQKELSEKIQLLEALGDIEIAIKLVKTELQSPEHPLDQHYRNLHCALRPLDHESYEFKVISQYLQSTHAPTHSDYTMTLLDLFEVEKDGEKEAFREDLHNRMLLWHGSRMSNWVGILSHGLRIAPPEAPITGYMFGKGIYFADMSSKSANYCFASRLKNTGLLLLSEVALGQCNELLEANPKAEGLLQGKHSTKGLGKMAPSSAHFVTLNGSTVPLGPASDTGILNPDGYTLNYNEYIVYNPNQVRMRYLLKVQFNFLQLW
- Protocol Text: PARP2 chemiluminescent assay
- Assay type: biochemical
- Condition Label: recombinant PARP2 enzyme activity, chemiluminescence
Readout Kind: IC50

- Molecule: "CNC(=O)c1ccc(NC(=O)c2cccc(-c3ccc4c(=O)n(C)c(=O)[nH]c4c3)c2)cn1 [Example 40]"
  Assayed Target: "PARP2 (Homo sapiens)"
  Assay Value: "> 1000 nM"
- Molecule: "CCn1c(=O)[nH]c2cc(CN3CCN(c4cnc(C(=O)NC)nc4)CC3)ccc2c1=O [Example 27]"
  Assayed Target: "PARP2 (Homo sapiens)"
  Assay Value: "100 to 1000 nM"
- Molecule: "CCn1c(=O)[nH]c2c(F)c(CN3CCN(c4ccc(C(=O)NC)nc4F)CC3)ccc2c1=O [Example 24]"
  Assayed Target: "PARP2 (Homo sapiens)"
  Assay Value: "> 1000 nM"
- Molecule: "CCN1Cc2ccc(CN3CCN(c4ccc(C(=O)NC)nc4F)CC3)cc2NC1=O [Example 114]"
  Assayed Target: "PARP2 (Homo sapiens)"
  Assay Value: "> 1000 nM"
- Molecule: "CCn1c(=O)[nH]c2cc(CN3CCN(c4ccc(C(=O)NC5CC5)nc4C)CC3)ccc2c1=O [Example 78]"
  Assayed Target: "PARP2 (Homo sapiens)"
  Assay Value: "> 1000 nM"
- Molecule: "CCNC(=O)c1ccc(N2CCN(Cc3ccc4c(=O)n(CC)c(=O)[nH]c4c3)CC2)c(Cl)n1 [Example 83]"
  Assayed Target: "PARP2 (Homo sapiens)"
  Assay Value: "100 to 1000 nM"
- Molecule: "O=C(c1cc(Cn2c(=O)[nH]c(=O)c3c(F)cccc32)ccc1F)N1CCN(c2ncccn2)CC1 [Senaparib, reference compound]"
  Assayed Target: "PARP2 (Homo sapiens)"
  Assay Value: "1 to 10 nM"
- Molecule: "CCn1c(=O)[nH]c2cc(CN3CCN(c4ccc(C(=O)NC)nc4Cl)CC3)cc(F)c2c1=O [Example 62]"
  Assayed Target: "PARP2 (Homo sapiens)"
  Assay Value: "100 to 1000 nM"
